Tested on: Mycobacterium tuberculosis
Assay: Cornell M. t heat shock assay; note: in the data most compounds retested in dose-response had high values
Format: functional, organism-based
Set-up: dose or concentration left out as unconfirmed
In all, about 69,000 compounds went through this assay and about 950 (1.4%) showed an effect of 50% or more. Many of the other results were omitted from the sample, so strong results are more common in it than they were.

compound: COCc1ncn(Cc2nc(-c3ccc(OC)cc3F)oc2C)n1
system.under.test: Mycobacterium tuberculosis
reading.unit: %
Percent Effect: -9.071

compound: CC(=O)NCC(=O)N1Cc2nccn2CC(COc2cccnc2)C1.O=C(O)C(F)(F)F (stereo unspecified)
system.under.test: Mycobacterium tuberculosis
reading.unit: %
Percent Effect: -35.06

compound: Cc1ccc(C(=O)Nc2cn[nH]c2)cc1F
system.under.test: Mycobacterium tuberculosis
reading.unit: %
Percent Effect: -0.1311

compound: CCCOC1CCCN(Cc2nc(-c3ccc(F)cc3F)oc2C)C1 (stereo unspecified)
system.under.test: Mycobacterium tuberculosis
reading.unit: %
Percent Effect: -26.76

compound: CCC(CNC(=O)c1ccc(=O)[nH]n1)N1CCc2ccccc2C1 (stereo unspecified)
system.under.test: Mycobacterium tuberculosis
reading.unit: %
Percent Effect: -4.669

compound: Cc1c(NC(=O)c2ccc(Br)cc2)c(C(=O)N(C)C)nn1C
system.under.test: Mycobacterium tuberculosis
reading.unit: %
Percent Effect: 5.328

compound: Cc1ccc(C2NC(=O)c3cc(C(C)C)sc3N2)cc1 (stereo unspecified)
system.under.test: Mycobacterium tuberculosis
reading.unit: %
Percent Effect: 19.82

compound: CN(C)Cc1ccccc1NC(=O)c1ccc(C#N)cc1
system.under.test: Mycobacterium tuberculosis
reading.unit: %
Percent Effect: -24.53

compound: COc1cc(Oc2ncccc2C(F)(F)F)ccc1CN1CCCC1
system.under.test: Mycobacterium tuberculosis
reading.unit: %
Percent Effect: 53

compound: COc1ncccc1CN1C[C@H]2C[C@@H](C(=O)NCC3CC3)N(C)[C@H]2C1.O=C(O)C(F)(F)F.O=C(O)C(F)(F)F.O=C(O)C(F)(F)F
system.under.test: Mycobacterium tuberculosis
reading.unit: %
Percent Effect: -0.5017

compound: CCOC(=O)Cc1csc(NC(=O)c2cc(=O)c(OC)c[nH]2)n1
system.under.test: Mycobacterium tuberculosis
reading.unit: %
Percent Effect: 26.29

compound: Cc1nn(C)cc1-c1cncn1CCN(C)C1CCCC1.Cl
system.under.test: Mycobacterium tuberculosis
reading.unit: %
Percent Effect: 1.181

compound: CC(C)c1cc2c(s1)NC(c1ccccn1)NC2=O (stereo unspecified)
system.under.test: Mycobacterium tuberculosis
reading.unit: %
Percent Effect: 100.6

compound: Cc1noc(NCc2ccc(F)cc2)n1
system.under.test: Mycobacterium tuberculosis
reading.unit: %
Percent Effect: -14.89

compound: CCC(=O)NCC(=O)NCC1CCN(c2cc(Cl)ccc2C)C1 (stereo unspecified)
system.under.test: Mycobacterium tuberculosis
reading.unit: %
Percent Effect: -4.009

compound: O=C(N1CCCC1)N1CCC2(CC1)CN(c1cccnc1)C(=O)CO2.O=C(O)C(F)(F)F
system.under.test: Mycobacterium tuberculosis
reading.unit: %
Percent Effect: -4.597

compound: O=C(NCCn1ccnc1)c1cccc(Br)c1
system.under.test: Mycobacterium tuberculosis
reading.unit: %
Percent Effect: 24.48

compound: CN1C[C@H](O)C[C@H]1c1nc(-c2ccc(OC(F)(F)F)cc2)no1
system.under.test: Mycobacterium tuberculosis
reading.unit: %
Percent Effect: -7.267

compound: Cc1noc(NC(=O)CCNC(=O)c2ccc(Br)cc2)n1
system.under.test: Mycobacterium tuberculosis
reading.unit: %
Percent Effect: -35.97

compound: CC(C)c1nc(N2CCC(N3CCSCC3)CC2)c2cnn(C)c2n1
system.under.test: Mycobacterium tuberculosis
reading.unit: %
Percent Effect: -6.323

compound: CC(C)c1nc(N2CCC(N3CCCC(O)C3)CC2)c2cnn(C)c2n1 (stereo unspecified)
system.under.test: Mycobacterium tuberculosis
reading.unit: %
Percent Effect: -1.228

###

System: Mycobacterium tuberculosis
Experiment: Cornell M. t heat shock assay; note: in the data most compounds retested in dose-response had high values
Format: functional, organism-based
Set-up: dose or concentration left out as unconfirmed
Out of some 69,000 compounds screened, about 950 (1.4%) showed an effect of 50% or more. The list comes from a sample in which strong results are over-represented; it also holds close analogues and randomly drawn compounds.

compound: Cl.Fc1ccccc1CNc1ccnc(C2CCNCC2)c1
reading.unit: %
Percent Effect: -7.114
--
compound: COCC(=O)Nc1nccn1Cc1ccc(Br)cc1
reading.unit: %
Percent Effect: 82.4
--
compound: CC(C)N(C)Cc1nnc2n1CCCN(c1ncccn1)C2.O=C(O)C(F)(F)F
reading.unit: %
Percent Effect: 11.35
--
compound: Cc1nc[nH]c1CN(Cc1ccccc1F)C1CC(C)(C)NC(C)(C)C1.O=C(O)CC(O)(CC(=O)O)C(=O)O
reading.unit: %
Percent Effect: -2.69
--
compound: CCc1c(C(=O)N2C[C@H]3CC[C@@H]2CN(c2cnccn2)C3)csc1C
reading.unit: %
Percent Effect: -16.87
--
compound: Clc1ccc(C2(CNC3=NCCN3)CCCC2)cc1.I
reading.unit: %
Percent Effect: 20.92
--
compound: Oc1cc(C2CCCCN2Cc2cccs2)nc(-c2ccncc2)n1 (configuration not stated)
reading.unit: %
Percent Effect: -5.43
--
compound: O=C(N1CCCC1)C12CC(CN1Cc1nccs1)C2
reading.unit: %
Percent Effect: 42.03
--
compound: Cc1ccsc1C(=O)N1CC2CC1(C(=O)NCC1CC1)C2
reading.unit: %
Percent Effect: -11.04
--
compound: O=C(O)C(F)(F)F.O=C(c1cccc(O)c1)N1CCC2(CCN2c2ncccn2)C1 (configuration not stated)
reading.unit: %
Percent Effect: 1.113
--
compound: Oc1cc(C2CCCCN2Cc2ccsc2)nc(-c2ccncc2)n1 (configuration not stated)
reading.unit: %
Percent Effect: -9.132
--
compound: Cl.O=c1c2sccc2nc2n1CCN(Cc1cc(F)ccc1F)CC2
reading.unit: %
Percent Effect: 0.6259

###

Tested on: Mycobacterium tuberculosis
Experiment: Cornell M. t heat shock assay; note: in the data most compounds retested in dose-response had high values
Assay type: functional, organism-based
Set-up: dose or concentration left out as unconfirmed
The campaign covered roughly 69,000 compounds. About 950 (1.4%) showed an effect of 50% or more. Only a selection was taken, and strong results are over-represented in it overall.
quantity.measured: Percent Effect (%)

molecule: COc1nccnc1-c1cccc(-c2ccn(CC3COCCO3)n2)c1 (centres undefined)
reading.unit: %
value.observed: -10.15
//
molecule: CCC(=O)Nc1ccc2c(c1)C1(CCOCC1)CN2CCOC.O=C(O)C(F)(F)F
reading.unit: %
value.observed: 46.17
//
molecule: Cc1ccc(CN2Cc3ccccc3O[C@]3(CC[C@H](CO)CC3)C2)s1.Cl
reading.unit: %
value.observed: -7.456
//
molecule: CC(=O)NCCc1cc2nc(-c3ccncc3)ccn2n1
reading.unit: %
value.observed: 1.137

###

# Percent Effect annotations
Test system: Mycobacterium tuberculosis
Assay: Cornell M. t heat shock assay; note: in the data most compounds retested in dose-response had high values
Assay type: functional, organism-based
Set-up: dose or concentration left out as unconfirmed
The whole screen tested about 69,000 compounds, of which about 950 (1.4%) showed an effect of 50% or more. This is one part of a sample in which strong results are shown more often than they occur.

molecule: COCCN1C(=O)CC(N2CCN(c3ccc(OC)cc3)CC2)C1=O (centres undefined)
Percent Effect / %: 70.99
//
molecule: COc1cccc(CN2CCC3(CCN(C(=O)[C@H]4CCCO4)CC3)C2)c1.O=C(O)C(F)(F)F
Percent Effect / %: -2.359
//
molecule: O=C(O)C(F)(F)F.O=C1CC[C@H]2[C@@H](CCN2Cc2ccco2)N1
Percent Effect / %: 9.652
//
molecule: Cc1nc(C(Cc2ccsc2)NC(=O)CCN2CCOCC2)sc1C (centres undefined)
Percent Effect / %: 3.097
//
molecule: COc1cccc(-c2cc(NCc3nccn3C)n(C)n2)c1
Percent Effect / %: 1.129
//
molecule: O=C1OC2(CCN(C(=O)C3NCCc4[nH]cnc43)CC2)c2ccccc21 (centres undefined)
Percent Effect / %: 26.76
//
molecule: COc1c(CNC(c2ccc(F)cc2)c2nccn2C)c(C)nn1C (centres undefined)
Percent Effect / %: -11.67
//
molecule: CCS(=O)(=O)NC[C@]12COC[C@H]1CN(Cc1cccc(OC)c1)C2.O=C(O)C(F)(F)F
Percent Effect / %: -11.48
//
molecule: CN(C)C(=O)[C@@H]1C[C@@H]2CCN(Cc3nccs3)C[C@@H]2O1.O=C(O)C(F)(F)F
Percent Effect / %: -1.901
//
molecule: CN(Cc1ccncc1)Cc1nccn1Cc1ccccc1
Percent Effect / %: 6.234
//
molecule: CCN(CC)C(=O)Cn1ccc2cc(NC(=O)C3CC3)ccc21
Percent Effect / %: 25.7
//
molecule: Cn1cc(C(NCc2ccc(F)cc2)c2cccc(F)c2)cn1 (centres undefined)
Percent Effect / %: -7.107
//
molecule: COCC(O)CN1CC(C)(C)CN(C(=O)CCc2ccccc2)CC1=O (centres undefined)
Percent Effect / %: 27.88
//
molecule: CN(CCc1ccccn1)Cc1nccn1Cc1ccccc1
Percent Effect / %: 101.1
//
molecule: COc1cccc(CNC(Cc2cccs2)c2nc(C)c(C)s2)c1OC.Cl (centres undefined)
Percent Effect / %: -9.078
//
molecule: Cn1nc(CN2CCCN(C3CCCC3)CC2)c2c(Cl)cccc21
Percent Effect / %: 57.91
//
molecule: Cc1cccc(CNC(Cc2ccsc2)c2nccs2)n1 (centres undefined)
Percent Effect / %: 101.9
//
molecule: CC(C)Oc1cccc(CNC(Cc2ccsc2)c2nccs2)c1.Cl (centres undefined)
Percent Effect / %: 2.523
//
molecule: O=C(O)C(F)(F)F.O=C(c1ccc(F)cc1)N1CC[C@H]2[C@H]1CCN2CC1CC1
Percent Effect / %: -18.24
//
molecule: Cc1nc(CN2CCCC2Cn2cccn2)nc2ccccc12 (centres undefined)
Percent Effect / %: 33.45
//
molecule: O=C(NC(Cc1ccsc1)c1nccs1)C1CC1 (centres undefined)
Percent Effect / %: -16.41
//
molecule: COc1ccc(CNC(c2cccc(F)c2)c2cnn(C)c2)cc1 (centres undefined)
Percent Effect / %: -3.342
//
molecule: O=C(c1ccco1)N1C(CO)[C@]2(O)CC[C@H]1CC2 (some centres undefined)
Percent Effect / %: 34.52
//
molecule: CCN(CC)C(=O)Cn1ccc2cc(NC(=O)NC3CC3)ccc21
Percent Effect / %: 61.18
//
molecule: CC(C)c1nn(C)cc1CNC1CCOc2ccccc21.Cl (centres undefined)
Percent Effect / %: -5.42
//
molecule: CSc1ccc(CNC(c2ccc(F)cc2)c2nccn2C)cc1 (centres undefined)
Percent Effect / %: 112.9
//
molecule: CN(C)C(=O)CO[C@@H]1CC[C@H]2[C@H]1OCCN2c1ncc(F)cn1.O=C(O)C(F)(F)F
Percent Effect / %: 7.03
//
molecule: Cn1nc(CN2CCCCC(N)C2)c2c(Cl)cccc21 (centres undefined)
Percent Effect / %: -3.376
//
molecule: Cn1ccnc1C(NCc1ccccc1)c1ccc(F)cc1 (centres undefined)
Percent Effect / %: 113.8
